Please find below IC50 data on Vascular endothelial growth factor receptor 2 (Homo sapiens) compiled from the literature.

Observe how each entry below is paired with its result.
compound	target.under.test	IC50
O=C(Nc1cc(-c2ccncc2)cc(C(F)(F)F)c1)Nc1ccc(Oc2ccnc(NC(=O)C3CC3)c2)c(F)c1	Vascular endothelial growth factor receptor 2 (Homo sapiens)	8 nM
COc1cc2nccc(Oc3ccc(NC(=O)c4c[nH]c(=S)n(-c5ccc(F)cc5)c4=O)cc3F)c2nc1OC	Vascular endothelial growth factor receptor 2 (Homo sapiens)	> 300 nM
NS(=O)(=O)c1ccc(NC=C2C(=O)Nc3nc(Cl)ccc32)cc1	Vascular endothelial growth factor receptor 2 (Homo sapiens)	100 to 1000 nM

Now for another entry.
Problem: Please give the measured IC50 for this compound: COc1cc2nccc(Oc3cc4occ(C(=O)NC5CC5)c4cc3Cl)c2cc1C(N)=O
Result: 50 to 200 nM

---

Please find below pIC50 data on Vascular endothelial growth factor receptor 2 (Homo sapiens, UniProt P35968) compiled from the literature.
pIC50: −log10 of the molar value.

Observe how each entry below is paired with its result.
chemical.string	target.under.test	pIC50
CC(=O)Nc1cc(CNc2ccccc2C(=O)NCCC2CCCC2)ccn1	Vascular endothelial growth factor receptor 2 (Homo sapiens, UniProt P35968)	8.10
COCCOc1cc2nccc(Oc3ccc(NC(=O)Nc4cccc(SC)c4)c(F)c3)c2cc1C#N	Vascular endothelial growth factor receptor 2 (Homo sapiens, UniProt P35968)	8.16
Cn1cc(-c2nccc(Oc3ccc(NC(=O)Nc4cccc(C(F)(F)F)c4)c(F)c3)n2)cn1	Vascular endothelial growth factor receptor 2 (Homo sapiens, UniProt P35968)	≥ 5.00
O=C(Nc1ccc(C(=O)c2ccc3ncc(N4CCNCC4)nc3c2)cc1)Nc1cccc(C(F)(F)F)c1	Vascular endothelial growth factor receptor 2 (Homo sapiens, UniProt P35968)	> 7.00
COc1cnc2c(Oc3ccc(NC(=O)c4c(C)nc(C)c(C(C)C)c4O)cc3F)ccnc2c1	Vascular endothelial growth factor receptor 2 (Homo sapiens, UniProt P35968)	≥ 7.00

Problem: Please give the measured pIC50 for this compound: c1csc(CNc2ccc(Cc3c[nH]c4ncccc34)cn2)c1
Result: ≥ 5.00

Problem: What about O=C(c1cc(NS(=O)(=O)c2ccc(F)cc2)ccc1F)c1c[nH]c2ncccc12 ?
Result: ≥ 5.00

Problem: What about CNC(=O)c1cccc(NC(=O)N(C)c2ccc(Oc3ccnc(C(=O)NC)c3)cc2)c1 ?
Result: < 5.00

Problem: What about CSc1ccc(CN2CCN(c3ccc(-c4cc(-c5cnn(C)c5)cn5ncc(C#N)c45)cn3)CC2)cc1 ?
Result: 7.85

Problem: What about CCOc1ccn(-c2ccc(F)cc2)c(=O)c1C(=O)Nc1ccc(Oc2ccnc3cc(OCCCN(C)C4CCC4)c4c(c23)OCCO4)c(F)c1 ?
Result: ≥ 7.30

Problem: What about CC(C)n1cc(C(=O)Nc2ccc(Oc3ccnc4cc(OCCCN5CCS(=O)(=O)CC5)c5c(c34)OCCO5)c(F)c2)c(=O)n(-c2ccc(F)cc2)c1=O ?
Result: 5.30 to 6.30

Problem: What about CN1CCN(CCCNc2nccn3nc(Nc4ccccc4)nc23)CC1 ?
Result: 4.30 to 5.52

---

Please find below IC50 data on Vascular endothelial growth factor receptor 2 (Homo sapiens) compiled from the literature.
attribute.measured: IC50 (nM)

Observe how each entry below is paired with its result.
compound	IC50 / nM
CCN1CCN(c2cc(NC(=O)Nc3ccc(Oc4ccnc(NC(=O)C5CC5)c4)c(F)c3)cc(C(F)(F)F)c2)CC1	14.5
C=CC(=O)Nc1cc2c(Nc3ccc(Br)cc3F)ncnc2cc1OCC(C)NC(=O)NCCC (centres unmarked)	784
COc1ccc(CN2C3CC2CN(c2ccc(-c4cc(NCC(=O)N(C)C)cn5ncc(C#N)c45)cn2)C3)cn1	93.8

I: O=C(Nc1ccc(F)c(C(F)(F)F)c1)Nc1ccc(Oc2ccnc(NC(=O)C3CC3)c2)cc1F
II: C=CC(=O)Nc1cc2c(Nc3ccc(Br)cc3F)ncnc2cc1OCCNC(=O)C1CCCN1 (centres unmarked)
Problem: Field: lower recorded IC50 (choose I or II ) Lab log: write the label of the selected item as the result.
Result: I
(I: 25.1 nM, II: 658 nM)

1: COc1cc2nccc(Oc3ccc4c(ccn4C(=O)NCCF)c3)c2cc1C(N)=O
2: COc1ccc(CN2CCN(c3ccc(-c4cc(N5CCOCC5)cn5ncc(C#N)c45)cn3)CC2)cn1
Problem: Between the two listed entries 1 and 2 , which has its IC50 at the higher number? Lab log: write the label of the selected item as the result.
Result: 2

P: NC(=O)c1[nH]c2cnccc2c1-c1ccc(NC(=O)Nc2cc(C(F)(F)F)ccc2F)cc1
Q: COc1cc(OC)cc(N(CCN2CCOCC2)c2ccc3ncc(-c4ccc(NC(=O)N5CCOCC5)nc4)nc3c2)c1
R: Cc1cc(Oc2ccnc(NC(=O)C3CC3)c2)ncc1NC(=O)Nc1cc(C(C)(F)F)ccc1F
S: C=CC(=O)Nc1cc2c(Nc3ccc(Br)cc3F)ncnc2cc1OCCNC(=O)NC(C)C
Problem: Order the entries by their reported IC50, beginning at the minimum. When ranking, write the labels in the order the request describes.
Result: R, P, Q, S
(R: 9.8 nM, P: 29 nM, Q: 229 nM, S: 895 nM)

I: C[C@@H](O)[C@@H](C)Oc1nc(Nc2cccc(Nc3nccc(OCCO)n3)c2)ncc1Br
II: Cc1cc(Oc2ccnc(NC(=O)C3CC3)c2)ncc1NC(=O)Nc1cc(C(F)(F)F)ccc1F
Problem: Field: lower recorded IC50 (choose I or II ) Lab log: write the label of the selected item as the result.
Result: II
